# Tested on: 496974-208-R-J2-PDC complex spheroids, growth % test/control
# Experiment: Anticancer human tumor 496974-208-R-J2-PDC patient-derived pancreatic carcinoma cell line growth inhibition [CLK]; active = viability on the fitted dose curve at most 10% of control; inactive = the rest
# Condition: second compound 1 µM; first compound 0.316 µM
Classes used: active, inactive

INSERT INTO assay_data (compound, class_assignment) VALUES
  ('CC1COCCN1c1cc(C2(S(C)(=N)=O)CC2)nc(-c2ccnc3[nH]ccc23)n1 (stereo not drawn) + CNC(=O)c1ccc(Nc2nc(OC3CCCC3)c3c(-c4ccc5nc(C)oc5c4)c[nH]c3n2)c(OC)c1', 'inactive'),
  ('COC1C=CCC(C)C(C)S(=O)(=O)NC(=O)c2ccc3c(c2)N(CC2CCC21)CC1(CCCc2cc(Cl)ccc21)CO3 (stereo not drawn) + CNC(=O)c1ccc(Nc2nc(OC3CCCC3)c3c(-c4ccc5nc(C)oc5c4)c[nH]c3n2)c(OC)c1', 'inactive'),
  ('Nc1ccn(C2OC(CO)C(O)C2(F)F)c(=O)n1 (stereo not drawn) + CN1CCN(c2cc(C(=O)Nc3cc4cc(-c5cnn(C)c5)ccc4cn3)ccn2)CC1', 'active');

====

# Tested on: 496974-208-R-J2-PDC complex spheroids, growth % test/control
# Experiment: Anticancer human tumor 496974-208-R-J2-PDC cell line growth inhibition [CLK];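 note: spheroids exposed to the drugs for 7 days before readout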
# Condition: curve of first compound; second compound 10 µM
pIC50: −log10 of the molar value.
Parameter measured: pIC50

INSERT INTO assay_data (compound, parameter_measured, data_value) VALUES
  ('COc1cccc2c1C(=O)c1c(O)c3c(c(O)c1C2=O)CC(O)(C(=O)CO)CC3OC1CC(N)C(O)C(C)O1 (stereo unspecified) + CN1CCN(c2cc(C(=O)Nc3cc4cc(-c5cnn(C)c5)ccc4cn3)ccn2)CC1', 'pIC50', '> 7.50'),
  ('CC1(C)CCC(CN2CCN(c3ccc(C(=O)NS(=O)(=O)c4ccc(NCC5CCOCC5)c([N+](=O)[O-])c4)c(Oc4cnc5[nH]ccc5c4)c3)CC2)=C(c2ccc(Cl)cc2)C1 + CN1CCN(c2cc(C(=O)Nc3cc4cc(-c5cnn(C)c5)ccc4cn3)ccn2)CC1', 'pIC50', '> 7.50'),
  ('Cn1ncnc1[C@H]1c2n[nH]c(=O)c3cc(F)cc(c23)N[C@@H]1c1ccc(F)cc1 + CN1CCN(c2cc(C(=O)Nc3cc4cc(-c5cnn(C)c5)ccc4cn3)ccn2)CC1', 'pIC50', '> 9.50'),
  ('CCN1CCN(Cc2ccc(Nc3ncc(F)c(-c4cc(F)c5nc(C)n(C(C)C)c5c4)n3)nc2)CC1 + CN1CCN(c2cc(C(=O)Nc3cc4cc(-c5cnn(C)c5)ccc4cn3)ccn2)CC1', 'pIC50', '> 8.50'),
  ('CC(C)CC(NC(=O)C(Cc1ccccc1)NC(=O)c1cnccn1)B(O)O (stereo unspecified) + CN1CCN(c2cc(C(=O)Nc3cc4cc(-c5cnn(C)c5)ccc4cn3)ccn2)CC1', 'pIC50', '> 9.02'),
  ('Nc1ccccc1NC(=O)c1ccc(CNC(=O)OCc2cccnc2)cc1 + CN1CCN(c2cc(C(=O)Nc3cc4cc(-c5cnn(C)c5)ccc4cn3)ccn2)CC1', 'pIC50', '> 7.50'),
  ('O=c1[nH]cc(F)c(=O)[nH]1 + CN1CCN(c2cc(C(=O)Nc3cc4cc(-c5cnn(C)c5)ccc4cn3)ccn2)CC1', 'pIC50', '> 7.50'),
  ('CC1(C)CCC(CN2CCN(c3ccc(C(=O)NS(=O)(=O)c4ccc(NCC5CCOCC5)c([N+](=O)[O-])c4)c(Oc4cnc5[nH]ccc5c4)c3)CC2)=C(c2ccc(Cl)cc2)C1 + CNC(=O)c1ccc(Nc2nc(OC3CCCC3)c3c(-c4ccc5nc(C)oc5c4)c[nH]c3n2)c(OC)c1', 'pIC50', 5.41),
  ('CC(Nc1ccc2c(c1)OCCn1cc(N3C(=O)OCC3C(F)F)nc1-2)C(N)=O (stereo unspecified) + CN1CCN(c2cc(C(=O)Nc3cc4cc(-c5cnn(C)c5)ccc4cn3)ccn2)CC1', 'pIC50', '> 7.50'),
  ('C=CC(=O)Nc1cc(Nc2nccc(-c3cn(C)c4ccccc34)n2)c(OC)cc1N(C)CCN(C)C + CN1CCN(c2cc(C(=O)Nc3cc4cc(-c5cnn(C)c5)ccc4cn3)ccn2)CC1', 'pIC50', '> 9.02'),
  ('Nc1ccn(C2OC(CO)C(O)C2(F)F)c(=O)n1 (stereo unspecified) + CNC(=O)c1ccc(Nc2nc(OC3CCCC3)c3c(-c4ccc5nc(C)oc5c4)c[nH]c3n2)c(OC)c1', 'pIC50', 7.22);
